# System: H1975 (EGFR L858R/T790M)
# measurement-protocol: WST-8 cytotoxicity assay, H1975
# Assay type: cell-based
# run-conditions: Homo sapiens, NCI-H1975
measure-name: IC50 (nM)

| mol | target-of-assay | measured-result |
| --- | --- | --- |
| C=CC(=O)Nc1cc(Br)cc(Nc2nc(Nc3ccc(N4CCN(C(C)=O)CC4)cc3OC)ncc2C(F)(F)F)c1 | H1975 (EGFR L858R/T790M) | 180 |

====

# measurement-protocol: Determination of partition coefficient (n-octanol / 0.1 M phosphate buffer pH 7.4)
# Assay type: physicochemical
measure-name: logP

| compound | measured-result |
| --- | --- |
| C=CC(=O)Nc1cc([77Br])cc(Nc2nc(Nc3ccc(N4CCN(C(C)=O)CC4)cc3OC)ncc2C(F)(F)F)c1 [[^77Br]9] | 1.72 |
